Property: melting point; scope: individual compounds

Answered examples (8):
Recorded result, CCn1ncc2c(-c3cncc(Br)c3)c(C(=O)O)c(COC)nc21 , melting point: 162 to 163 °C

Recorded result, CCn1ncc2c(-c3ccccc3)c(/C=C/C(=O)O)c(-c3ccccc3)nc21 , melting point: > 250 °C

Recorded result, CCn1ncc2c(-c3cncc(C)c3)c(/C=C/C(=O)O)c(C)nc21 , melting point: 239 to 241 °C

Recorded result, CCn1ncc2c(-c3cncc(C)c3)c(CCC(=O)O)c(C#N)nc21 , melting point: 209 to 210 °C

Recorded result, CCn1ncc2c(-c3cncc(C)c3)c(C(=O)NC3Cc4ccccc4C3)c(-c3ccccc3)nc21 , melting point: 269 to 270 °C

Recorded result, CCn1ncc2c(-c3cncc(C)c3)c(CCC(=O)O)c(CC(C)(C)C)nc21 , melting point: 221 to 223 °C

Recorded result, CCn1ncc2c(-c3cncc(C)c3)c(C(=O)NCC3CCCCC3)c(-c3ccccc3)nc21 , melting point: 197 to 199 °C

Recorded result, CCn1ncc2c(-c3ccnc(Cl)c3)c(/C=C/C(=O)O)c(-c3ccccc3)nc21 , melting point: > 250 °C

New cases:
Recorded result, CCn1ncc2c(-c3cncc(C)c3)c(C(=O)NCCOc3ccccc3)c(-c3ccccc3)nc21 , melting point: 175 to 176 °C

Recorded result, CCn1ncc2c(-c3cncc(C)c3)c(CCC(=O)O)c(-c3ocnc3C)nc21 , melting point: 184 to 185.5 °C
